conditions: in NMP, 298.15 K
VALUE_KIND: solubility (mole fraction)
Output: the number by itself.

Request: For the compound "Nc1ccc(S(=O)(=O)Nc2ncccn2)cc1" , what solubility (mole fraction) is on record?
Response: 0.0194

----------
settings: in water, 303.15 K
VALUE_KIND: solubility (mole fraction)

Request: Param item = "Nc1ccc(S(=O)(=O)Nc2ncccn2)cc1" ; retrieve measured solubility (mole fraction).
Response: 6.32e-06

----------
conditions: in NMP, 288.15 K
VALUE_KIND: solubility (mole fraction)
# answer = number (no unit)

Request: Returns the measured solubility (mole fraction) for the input molecule. Input: "Nc1ccc(S(=O)(=O)Nc2ncccn2)cc1"
Response: 0.0153
